I'd be grateful if you could share measured EC50 for these entries.
- Test system: A549
- EXPERIMENT DESCRIPTION: Cytotoxicity against human A549 cells
- Format: functional
- MEASUREMENT CONDITIONS: read-out: ED50 (the source's name)

1. CCCCCC/C=C\CCCCCCCCCCCCCCCCCC[C@@H](O)C(=O)N[C@@H](CO[C@@H]1O[C@H](CO)[C@@H](O)[C@H](O)[C@H]1O)[C@H](O)/C=C/CC/C=C/C=C/CCCCCCC [RENIEROSIDE A1]    > 10 µg/mL
2. CCCCCCC/C=C/C=C/CC/C=C/[C@@H](O)[C@H](CO[C@@H]1O[C@H](CO)[C@@H](O)[C@H](O)[C@H]1O)NC(=O)[C@H](O)CCCCCCCCCCCCCCCCCCCCCC [RENIEROSIDE A5]    > 10 µg/mL
3. CCCCCCC/C=C/C(C)=C/CC/C=C/[C@@H](O)[C@H](CO[C@@H]1O[C@H](CO)[C@@H](O)[C@H](O)[C@H]1O)NC(=O)[C@H](O)CCCCCCCCCCCCCC/C=C\CCCCCCCC [RENIEROSIDE B2]    > 10 µg/mL
4. CCCCCC/C=C\CCCCCCCCCCCCCCCCCC[C@@H](O)C(=O)N[C@@H](CO[C@@H]1O[C@H](CO)[C@@H](O)[C@H](O)[C@H]1O)[C@H](O)/C=C/CC/C=C(C)/C=C/CCCCCCC [RENIEROSIDE B1]    > 10 µg/mL

# input Could you please provide reported EC50 for CCCCCC/C=C\CCCCCCCCCCCCCCCCC[C@@H](O)C(=O)N[C@@H](CO[C@@H]1O[C@H](CO)[C@@H](O)[C@H](O)[C@H]1O)[C@H](O)/C=C/CC/C=C(C)/C=C/CCCCCCC [RENIEROSIDE B3] ? Thanks!
# output > 10 µg/mL
